System: Human Oral Mucosa Explant Tissues
Experiment: Effect of final gel pH on anthocyanin uptake into human oral mucosa explant tissues
Format: in vitro ADME
Settings: explant sample 011; 10% w/w FBR gel
reported_property: Anthocyanin uptake, Gel pH 6.5 (pmol per mg tissue)

Examples with their reported Anthocyanin uptake, Gel pH 6.5 follow.
CC1OC(OCC2OC(Oc3cc4c(O)cc(O)cc4[o+]c3-c3ccc(O)c(O)c3)C(OC3OCC(O)C(O)C3O)C(O)C2O)C(O)C(O)C1O (stereo not shown) [cyanidin 3-xylosylrutinoside] ... 0.00
OC[C@H]1O[C@@H](Oc2cc3c(O)cc(O)cc3[o+]c2-c2ccc(O)c(O)c2)[C@H](O)[C@@H](O)[C@@H]1O [cyanidin 3-glucoside] ... 7.5

[a] OC[C@H]1O[C@@H](Oc2cc3c(O)cc(O)cc3[o+]c2-c2ccc(O)c(O)c2)[C@H](O[C@@H]2OC[C@@H](O)[C@H](O)[C@H]2O)[C@@H](O)[C@@H]1O.[Cl-] [Cyanidin 3-sambubioside, cyanidin 3-sambubioside]
[b] C[C@@H]1O[C@@H](OC[C@H]2O[C@@H](Oc3cc4c(O)cc(O)cc4[o+]c3-c3ccc(O)c(O)c3)[C@H](O)[C@@H](O)[C@@H]2O)[C@H](O)[C@H](O)[C@H]1O [cyanidin 3-rutinoside]
I'm curious whether a or b has the smaller Anthocyanin uptake, Gel pH 6.5 number. Which is it? Answer = label. a
(a: 0.0 pmol per mg tissue, b: 0.4 pmol per mg tissue)
